Provenance of the data: the supplement of paper PMC12669032

Test system: Fusobacterium nucleatum subsp. animalis
Assay: growth AUC relative to DMSO control (median of replicates) (fraction); higher = more growth (less inhibition), active = hit call of the paper
Conditions: 20 µM; 24 h
Reported endpoint: growth AUC
Returns: the value as a bare number; no unit string appended.

Below are worked cases with known answers.
CN(C)C(=O)Nc1ccc(Cl)c(Cl)c1 :: 1.02
CN1CCC[C@H]1c1cccnc1 :: 0.98

growth AUC recorded for this compound, `COc1ccccc1C(=O)NS(=O)(=O)c1ccc(C(=O)NC2CC2)cc1` , is 1.01

get_value(item= CS(=O)(=O)c1ccc(C(=O)C2C(=O)C(O)CC(O)C2=O)c(Cl)c1COCC(F)(F)F (centres undefined) , readout=growth AUC) returns 1.02

###

Tested on: Bifidobacterium longum subsp. longum
Assay: growth AUC relative to DMSO control (median of replicates) (fraction); higher = more growth (less inhibition), active = hit call of the paper
Conditions: 20 µM; 24 h
Reported values of growth AUC for individual entries
A bare number is all that is needed in reply.

Field growth AUC (entry `CCOC(=O)[C@@H](C)Oc1ccc(Oc2cnc3cc(Cl)ccc3n2)cc1` ) reads 1.01

###

Test system: Bifidobacterium longum subsp. longum
Experiment: growth AUC relative to DMSO control (median of replicates) (fraction); higher = more growth (less inhibition), active = hit call of the paper
Settings: 20 µM; 24 h
Entries and their growth AUC
Lab note: record the figure alone, no unit after it.

CCCOC(=O)c1ccc(O)cc1 :: 1.01
COc1cc(OC)nc(NC(=O)NS(=O)(=O)Nc2ccccc2C(=O)N(C)C)n1 :: 0.975
CC(C)(C)C(=O)C(Oc1ccc(Cl)cc1)n1ccnc1 (stereo not given) :: 1.01
O=C(O)C1(C(=O)Nc2ccc(Cl)cc2Cl)CC1 :: 0.998

# context switch: different molecule, same growth AUC
Reported growth AUC of `COc1cc(OC)nc(NC(=O)NS(=O)(=O)c2c(Cl)nc3ccccn23)n1` : 1.02
